// data source = the NIST ThermoML archive (doi:10.1021/je0301489)

Settings: 303.15 K; 101.33 kPa; Liquid
READOUT NAME: viscosity (mPa·s)
Numbers only here, please. The scale is mPa·s.

                                   compound  recorded_result
0  CCCCCCCCOC(=O)c1ccccc1C(=O)OCCCCCCCC [dioctyl 1,2-benzenedicarboxylate]            30.18

Provide one value: measured viscosity of CCOC(=O)c1ccccc1C(=O)OCC [diethyl phthalate] 6.129

Provide one value: measured viscosity of CCOC(=O)C(=O)OCC [diethyl ethanedioate] 1.581

Provide one value: measured viscosity of CCOC(=O)CC(C)=O [ethyl 3-oxobutanoate] 1.339

Provide one value: measured viscosity of C1COCCO1 [1,4-dioxane] 1.069

====

Details: 308.15 K; 101.33 kPa; Liquid
Readings of mass density for the listed compounds
Numbers only here, please. The scale is kg/m3.

For orientation, consider the following solved cases.
In [3]: df
Out[3]:
                                   compound  readout_name  recorded_result
0                    C1COCCO1 [1,4-dioxane]  mass density           1016.2
1  CCOC(=O)c1ccccc1C(=O)OCC [diethyl phthalate]  mass density           1105.6
2  CCCCCCCCOC(=O)c1ccccc1C(=O)OCCCCCCCC [dioctyl 1,2-benzenedicarboxylate]  mass density            973.1
3    CCOC(=O)CC(C)=O [ethyl 3-oxobutanoate]  mass density           1010.2

Proceeding to the next compound to report its mass density.
Provide one value: measured mass density of CCOC(=O)C(=O)OCC [diethyl ethanedioate] 1060.8

====

Settings: 308.15 K; 101.33 kPa; Liquid
Numbers after ± are expanded uncertainties.
Readings of viscosity for the listed molecules

For orientation, consider the following solved cases.
>>> df
                                   molecule  readout_name      recorded_result
0   CCOC(=O)C(=O)OCC [diethyl ethanedioate]     viscosity  1.437 ± 0.017 mPa·s
1  CCCCCCCCOC(=O)c1ccccc1C(=O)OCCCCCCCC [dioctyl 1,2-benzenedicarboxylate]     viscosity   21.88 ± 0.37 mPa·s
2  CCOC(=O)c1ccccc1C(=O)OCC [diethyl phthalate]     viscosity  4.893 ± 0.091 mPa·s
3    CCOC(=O)CC(C)=O [ethyl 3-oxobutanoate]     viscosity  1.239 ± 0.016 mPa·s

Proceeding to the next molecule to report its viscosity.
Provide one value: measured viscosity of C1COCCO1 [1,4-dioxane] 0.984 ± 0.013 mPa·s
